Test system: ATPase activity endogenous to L929 cell lysate
Assay Remarks: Detergent inhibition of ATPase endogenous to L929 cell lysate (ATP remaining by luciferase luminescence, 22° C.)
Assay type: biochemical
Run Parameters: 1.0% detergent, 260 min
# Average Relative Light Unit Values listing for each entry below

Some compounds with recorded Average Relative Light Unit Values:
CCCCCCCCCCCCOS(=O)(=O)[O-].[Na+] [SDS, Sodium dodecyl sulfate]: 0.01 rlu
C[C@H](CCC(=O)NCCC[N+](C)(C)CC(O)CS(=O)(=O)[O-])[C@H]1CC[C@H]2[C@@H]3[C@H](O)C[C@@H]4C[C@H](O)CC[C@]4(C)[C@H]3C[C@H](O)[C@]12C (stereo partly drawn) [CHAPSO]: 840.57 rlu

The compound CCCCCCCCCCCC[N+](C)(C)Cc1ccccc1.[Br-] [BDDABr, Benzyldimethyldodecylammonium bromide] showed Average Relative Light Unit Values equal to 0.43 rlu
